# key: entry, value: melting point

In the examples that follow, each entry is paired with its recorded melting point.
compound="O=C(c1cc(C(F)(F)F)cc(C(F)(F)F)c1)N1CCC2(CC1)C(=O)N(c1cc(Cl)ncn1)CN2c1ccccc1 [Example 61]" readout_type="melting point" value_reported="212 to 214 °C"
compound="O=C(c1cc(C(F)(F)F)cc(C(F)(F)F)c1)N1CCC2(CC1)C(=O)NCN2c1cccc(Cl)c1 [Example 63]" readout_type="melting point" value_reported="235 to 236 °C"
compound="O=C(c1cc(C(F)(F)F)cc(C(F)(F)F)c1)N1CCC2(CC1)C(=O)NCN2c1ccccc1Cl [Example 67]" readout_type="melting point" value_reported="157 to 159 °C"
compound="O=C(c1cc(C(F)(F)F)cc(C(F)(F)F)c1)N1CCC2(CC1)C(=O)NCN2c1ccccc1 [Example 1]" readout_type="melting point" value_reported="251 °C"
compound=O=C(c1cc(C(F)(F)F)cc(C(F)(F)F)c1)N1CCC2(CC1)C(=O)NC(=O)N2c1ccccc1Cl readout_type="melting point" value_reported="153 to 154 °C"
compound="O=C(c1cc(C(F)(F)F)cc(C(F)(F)F)c1)N1CCC2(CC1)C(=O)NCN2c1ccc(Cl)c(Cl)c1 [Example 65]" readout_type="melting point" value_reported="220 to 222 °C"
compound="Cc1ccccc1N1CNC(=O)C12CCN(C(=O)c1cc(C(F)(F)F)cc(C(F)(F)F)c1)CC2 [Example 66]" readout_type="melting point" value_reported="164 to 168 °C"

// next item, melting point requested
## Task Which melting point is listed for O=C(c1cc(C(F)(F)F)cc(C(F)(F)F)c1)N1CCC2(CC1)C(=O)NCN2c1ccc(Cl)cc1 [Example 64] ?
## Result 233 to 235 °C
